The reader will find reported Percent Effect values listed item by item below.
- study.target: Protein translocase subunit SecA (Escherichia coli (strain K12)) (UniProt P10408)
- Sequence (P10408 whole entry): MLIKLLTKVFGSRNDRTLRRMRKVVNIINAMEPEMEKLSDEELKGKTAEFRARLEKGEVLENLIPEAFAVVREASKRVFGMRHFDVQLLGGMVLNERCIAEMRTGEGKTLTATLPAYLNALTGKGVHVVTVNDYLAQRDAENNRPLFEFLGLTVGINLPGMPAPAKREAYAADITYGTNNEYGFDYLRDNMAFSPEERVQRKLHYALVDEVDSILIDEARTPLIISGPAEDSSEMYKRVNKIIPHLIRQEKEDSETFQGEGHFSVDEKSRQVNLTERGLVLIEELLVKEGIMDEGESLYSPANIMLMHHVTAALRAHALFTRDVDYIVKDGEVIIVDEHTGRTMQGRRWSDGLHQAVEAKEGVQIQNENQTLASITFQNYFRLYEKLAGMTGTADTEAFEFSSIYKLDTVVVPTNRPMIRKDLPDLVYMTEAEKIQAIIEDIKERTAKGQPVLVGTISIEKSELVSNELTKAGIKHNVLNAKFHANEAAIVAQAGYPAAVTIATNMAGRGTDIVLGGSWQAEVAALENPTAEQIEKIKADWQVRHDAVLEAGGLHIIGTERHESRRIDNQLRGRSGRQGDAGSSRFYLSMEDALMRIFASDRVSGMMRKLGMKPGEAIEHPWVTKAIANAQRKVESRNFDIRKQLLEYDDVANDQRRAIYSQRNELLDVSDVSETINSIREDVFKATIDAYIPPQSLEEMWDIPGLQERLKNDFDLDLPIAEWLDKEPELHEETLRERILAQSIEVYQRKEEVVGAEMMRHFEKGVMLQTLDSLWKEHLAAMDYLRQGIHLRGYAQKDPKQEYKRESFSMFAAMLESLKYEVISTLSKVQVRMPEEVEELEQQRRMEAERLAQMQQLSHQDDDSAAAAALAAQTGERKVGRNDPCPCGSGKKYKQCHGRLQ
- measurement.description: Assay to Identify E. coli SecA ATPase Inhibitors
- Type: functional
- Parameters: scale not given: direction of the effect not stated beside the values
- condition.summary: 30 µM
Entries with a potency or affinity are not part of this list.
recorded.metric: Percent Effect (%)

compound=CCc1nc(NS(=O)(=O)c2ccc(F)cc2C)no1 recorded_metric="Percent Effect" recorded_number=-4.36
compound=COc1cccc(CN2CCC(c3nccn3C(C)C)CC2)c1 recorded_metric="Percent Effect" recorded_number=-3.84
compound=COc1cc(C)nc(N2CCN(C(=O)CCn3cc(C)cn3)CC2)n1 recorded_metric="Percent Effect" recorded_number=-1.32
compound="COCCn1nc(C(=O)N2CCCC2c2cccc(F)c2)ccc1=O (stereo not drawn)" recorded_metric="Percent Effect" recorded_number=-0.858
compound=Cc1ccc(N2CC3(CCN(C(=O)c4ccoc4)C3)C2)nn1 recorded_metric="Percent Effect" recorded_number=-2.51
compound="O=C(CCc1cccs1)N1CCCCC1Cn1cccn1 (stereo not drawn)" recorded_metric="Percent Effect" recorded_number=-6.87
compound=CN(C)[C@@H]1CCN(c2ncccn2)[C@H]1Cc1ccncc1 recorded_metric="Percent Effect" recorded_number=-4.35
compound="Cc1nn(C)c(C)c1C1CCCN1Cc1nc(-c2ccco2)oc1C (stereo not drawn)" recorded_metric="Percent Effect" recorded_number=-4.35
compound="Cc1nc(C)n(CC2CCCN2CCCOc2ccc(F)cc2)n1 (stereo not drawn)" recorded_metric="Percent Effect" recorded_number=-4.9
compound=Cc1csc([C@@H]2C[C@@H]3CCN(C(=O)c4ccnnc4)C[C@H]3O2)n1 recorded_metric="Percent Effect" recorded_number=0.296
compound="O=C(C1CC1)N1CCCC1C1CCN(Cc2ccccc2)CC1 (stereo not drawn)" recorded_metric="Percent Effect" recorded_number=-2.89
compound="CC(O)CN1CCN(Cc2nnc(C3CC3)o2)CC1 (stereo not drawn)" recorded_metric="Percent Effect" recorded_number=-2.68
compound="c1ccc(Cn2cccn2)c(CNCC2CNc3ccnn3C2)c1 (stereo not drawn)" recorded_metric="Percent Effect" recorded_number=-5.51
compound="c1ccc(-c2nc(CN3CCCC3Cn3cncn3)cs2)cc1 (stereo not drawn)" recorded_metric="Percent Effect" recorded_number=-2.21
compound="CC(CNCc1ccncc1)Oc1ccccn1 (stereo not drawn)" recorded_metric="Percent Effect" recorded_number=-0.77
compound=COc1cc(C(=O)N(Cc2cnn(C)c2)C(C)C)ccc1OCC(N)=O recorded_metric="Percent Effect" recorded_number=-7.3
compound=O=C(O)c1c[nH]c2cc(NS(=O)(=O)c3cccc(Cl)c3F)ccc12 recorded_metric="Percent Effect" recorded_number=-4.73
compound=CCN1CCN(C(=O)c2nc(C)n(-c3ccccc3Cl)n2)CC1 recorded_metric="Percent Effect" recorded_number=-9.34
compound=Cc1ccc(C(=O)N2CCN(CCCSCC#N)CC2)o1 recorded_metric="Percent Effect" recorded_number=-3.54
compound=O=C(NC[C@]12COC[C@H]1CN(C1CCOCC1)C2)c1ccco1 recorded_metric="Percent Effect" recorded_number=-5.25
compound=CCN(CC)C(=O)Cn1ccc2cc(NC(=O)C3CC3)ccc21 recorded_metric="Percent Effect" recorded_number=-5.06
compound="Cc1nc(C2CCCN(C(=O)CCCn3cccn3)C2)no1 (stereo not drawn)" recorded_metric="Percent Effect" recorded_number=-4.66
compound="CC1(NC(=O)Cc2csc(C(C)(C)C)n2)CCS(=O)(=O)C1 (stereo not drawn)" recorded_metric="Percent Effect" recorded_number=-7.31
compound=CC(C)OCCOCc1cccc(NC(=O)NCc2ccncc2)c1 recorded_metric="Percent Effect" recorded_number=2.27
compound="CC(=O)N(C)c1nc(CN2CCOC(Cn3cc(C)cn3)C2)cs1 (stereo not drawn)" recorded_metric="Percent Effect" recorded_number=-1.65
compound="Cc1n[nH]c(C2CN(C(=O)c3cc(Cl)c[nH]3)CCO2)n1 (stereo not drawn)" recorded_metric="Percent Effect" recorded_number=-1.17
compound="CC(=O)Nc1nc(C(=O)N2CCCC(n3ccnc3)C2)cs1 (stereo not drawn)" recorded_metric="Percent Effect" recorded_number=-2.04
compound="Cc1cc(-c2nnc(SCC(=O)O)n2C(C)c2ccccc2)nn1C (stereo not drawn)" recorded_metric="Percent Effect" recorded_number=-4.08
compound="CC(CNC(=O)c1cccnc1Oc1cccnc1)N(C)C (stereo not drawn)" recorded_metric="Percent Effect" recorded_number=-0.805
compound="CCc1cnc(N2CCC(=O)N(CC3CC3)C(C(C)C)C2)nc1 (stereo not drawn)" recorded_metric="Percent Effect" recorded_number=3.49
compound=Cc1ncsc1CN1C[C@@H](OCC2CC2)[C@H]2OCCC[C@H]21 recorded_metric="Percent Effect" recorded_number=-6.87
compound="Cc1cnc(N2CCCC3(CCN(Cc4csc(C)n4)C3=O)C2)nc1 (stereo not drawn)" recorded_metric="Percent Effect" recorded_number=-1.53
compound="O=C1CC(c2ccccc2)C2(CCN(CC3CC3)CC2)N1 (stereo not drawn)" recorded_metric="Percent Effect" recorded_number=-1.75
compound="Cc1ccc(C2COCCN2C(=O)c2ccc(CN(C)C)cc2)o1 (stereo not drawn)" recorded_metric="Percent Effect" recorded_number=-0.657
compound=CC(C)NC(=O)N1CC[C@@H]2CN(Cc3cccc(Cl)c3)S(=O)(=O)[C@@H]2CC1 recorded_metric="Percent Effect" recorded_number=-0.309
compound=Cc1nc(CN2C(=O)C[C@@H]3[C@@H]2CCN3C(=O)C2CCOCC2)cs1 recorded_metric="Percent Effect" recorded_number=-0.279
compound=O=C(CSc1nc2c(cnn2CCO)c(=O)[nH]1)N1CCCCCC1 recorded_metric="Percent Effect" recorded_number=1.99
compound=CCS(=O)(=O)c1ccc(N2CCC(NC(C)=O)CC2)cc1 recorded_metric="Percent Effect" recorded_number=-5.48
compound="N#Cc1ccccc1CN1CCCCC1Cn1cncn1 (stereo not drawn)" recorded_metric="Percent Effect" recorded_number=-0.27
compound="CNc1nc2c(s1)C(c1c(Cl)cccc1Cl)CC(=O)N2 (stereo not drawn)" recorded_metric="Percent Effect" recorded_number=2.52
compound=Cc1ccc(CNCc2ccc(-n3nc(C)cc3C)nc2)cc1 recorded_metric="Percent Effect" recorded_number=-1.16
compound=O=C(c1cncc(Br)c1)N1CCC(O)(Cn2ccc3ccncc32)CC1 recorded_metric="Percent Effect" recorded_number=1.79
compound="Cc1cnn(CC2CN(c3ncnc4ccsc34)CCO2)c1 (stereo not drawn)" recorded_metric="Percent Effect" recorded_number=-2.74
compound="CN(C)C(=O)N1CCC2(CCCN(Cc3cnn(C)c3)C2)C1 (stereo not drawn)" recorded_metric="Percent Effect" recorded_number=-3.04
compound="CNC(=O)NC(=O)CN1CCC(c2cccc(F)c2)C1 (stereo not drawn)" recorded_metric="Percent Effect" recorded_number=-1.99
compound="CCOC(CC)C(=O)NCc1ccnc(Oc2ccc(F)cc2)c1 (stereo not drawn)" recorded_metric="Percent Effect" recorded_number=-0.936
compound=CS(=O)(=O)Cc1ccc(CNC(=O)c2cccnc2O)cc1 recorded_metric="Percent Effect" recorded_number=-1.42
compound="Cc1cnn(CC2CCCN2Cc2nccn2C)c1 (stereo not drawn)" recorded_metric="Percent Effect" recorded_number=-3.05
